Target Or Test System: Chromo domain-containing protein 1 (Saccharomyces cerevisiae (strain ATCC 204508 / S288c) (Baker's yeast)) (UniProt P32657)
Sequence (P32657 whole entry, the tested form may be a part): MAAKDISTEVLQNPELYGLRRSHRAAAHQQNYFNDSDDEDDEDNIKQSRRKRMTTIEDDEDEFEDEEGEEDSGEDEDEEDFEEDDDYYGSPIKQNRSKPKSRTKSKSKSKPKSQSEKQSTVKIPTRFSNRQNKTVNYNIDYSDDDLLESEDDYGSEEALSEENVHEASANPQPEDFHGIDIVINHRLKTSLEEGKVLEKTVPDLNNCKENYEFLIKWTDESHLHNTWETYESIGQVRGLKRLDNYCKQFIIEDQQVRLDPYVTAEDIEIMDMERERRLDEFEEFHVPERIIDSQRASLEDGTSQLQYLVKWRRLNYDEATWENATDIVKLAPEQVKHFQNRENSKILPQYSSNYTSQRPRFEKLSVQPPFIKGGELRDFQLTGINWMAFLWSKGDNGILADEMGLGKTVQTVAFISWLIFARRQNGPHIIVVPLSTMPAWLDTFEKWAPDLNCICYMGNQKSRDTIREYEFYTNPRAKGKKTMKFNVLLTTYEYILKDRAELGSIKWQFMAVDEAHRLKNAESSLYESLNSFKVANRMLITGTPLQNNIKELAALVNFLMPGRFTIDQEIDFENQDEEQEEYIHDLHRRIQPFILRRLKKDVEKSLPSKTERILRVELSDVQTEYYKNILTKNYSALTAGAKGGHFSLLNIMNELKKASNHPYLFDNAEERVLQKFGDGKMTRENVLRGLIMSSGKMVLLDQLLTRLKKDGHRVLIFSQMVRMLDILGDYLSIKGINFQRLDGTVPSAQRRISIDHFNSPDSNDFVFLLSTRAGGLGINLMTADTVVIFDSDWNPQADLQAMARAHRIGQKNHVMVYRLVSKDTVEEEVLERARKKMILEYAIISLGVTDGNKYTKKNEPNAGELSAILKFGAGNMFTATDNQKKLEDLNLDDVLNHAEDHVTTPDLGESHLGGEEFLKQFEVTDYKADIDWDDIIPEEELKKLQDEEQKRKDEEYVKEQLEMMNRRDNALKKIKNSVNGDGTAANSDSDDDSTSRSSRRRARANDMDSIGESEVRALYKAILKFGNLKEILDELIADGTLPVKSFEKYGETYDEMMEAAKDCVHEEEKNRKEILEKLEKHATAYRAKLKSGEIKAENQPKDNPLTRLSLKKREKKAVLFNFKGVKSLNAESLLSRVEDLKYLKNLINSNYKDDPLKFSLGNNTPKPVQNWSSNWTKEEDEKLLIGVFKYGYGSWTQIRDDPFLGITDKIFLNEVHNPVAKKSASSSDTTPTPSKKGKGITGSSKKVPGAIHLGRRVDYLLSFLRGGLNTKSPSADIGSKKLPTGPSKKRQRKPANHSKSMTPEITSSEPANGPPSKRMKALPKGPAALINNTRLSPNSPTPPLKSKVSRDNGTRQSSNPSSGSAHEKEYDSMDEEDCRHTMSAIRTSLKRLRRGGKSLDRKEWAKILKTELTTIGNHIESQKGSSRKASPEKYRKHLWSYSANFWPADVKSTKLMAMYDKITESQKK
Test Name: ScCHD-1 Enzyme Inhibition Assay; note: in the data most compounds retested in dose-response had high values
Assay type: functional
Set-up: scale not given: direction of the effect not stated beside the values
Measurement Setup: 30 µM
Endpoint: Percent Effect (%)
Answers are plain numbers, in %.

>>> measured_result("CNS(=O)(=O)c1ccc(C(=O)NCCc2ccccn2)cc1")
-7.59
>>> measured_result("CN(C)C(=O)[C@@H]1CCO[C@@H]2CCN(Cc3ccc4c(c3)OCO4)C[C@@H]21")
2.41
>>> measured_result("O=C(NCCn1nc2ccccn2c1=O)c1cccc2[nH]ncc12")
-8.5
>>> measured_result("COc1cccc(CN2CCC3(CCN(C(=O)[C@H]4CCCO4)CC3)C2)c1")
-10.4

Each of the following entries comes with a recorded value; kindly state Percent Effect for each.
1. Cc1cc(C)c(CNC(=O)N2CCN(c3cnccn3)CC2)c(=O)[nH]1
2. CCCNC(=O)Nc1cc2c(cc1SC)OCCO2

-9.64
-6.19

Each of the following entries comes with a recorded value; kindly state Percent Effect for each.
1. O=C1CCCN1Cc1nnc2n1CCN(Cc1ccoc1)CC2
2. CCCC(Nc1c(C#N)c(=O)n(C)c(=O)n1C)c1ccc(F)cc1F (stereo not drawn)
3. CN(C)CCO[C@@H]1CC[C@H]2[C@H]1OCCN2C(=O)COc1ccccc1
4. Cc1nc(C)n(C2CCCN(C(=O)c3ccc(F)cc3F)C2)n1 (stereo not drawn)
5. O=C(C[C@@H]1COC[C@H]2CN(Cc3ccc(F)cc3)C[C@@H]12)N1CCOCC1
6. O=C(Cc1ccc2c(c1)OCCO2)NCCc1nnc2n1CCC2
7. CN(C)c1cc(CNC(=O)Nc2ccc(S(C)(=O)=O)nc2)ccn1
8. O=C(O)c1nnn(-c2ccc(OC(F)(F)F)cc2)c1-c1ccncc1

[-3.88, -4.28, 1.68, -7.11, -10.9, -9.97, -2.59, 41.3]

Each of the following entries comes with a recorded value; kindly state Percent Effect for each.
1. O=C1CCC2(CCCN(c3ncc(F)cn3)CC2)N1CC1CC1 (stereo not drawn)
2. CS(=O)(=O)CCNC(=O)C1(c2cccc(Cl)c2)CCCCC1
3. Cc1cccc(CN2CCc3c(nc(N4CCC(C)CC4)[nH]c3=O)C2)n1
4. CN(C)S(=O)(=O)N1CCN(c2ccnc(N3CCCC3)n2)CC1
5. CC(=O)Nc1cc(C(=O)N2CCOCC2c2ccc(C)o2)ccc1F (stereo not drawn)

[-4.57, -0.434, -8.43, -0.866, 1.78]

Each of the following entries comes with a recorded value; kindly state Percent Effect for each.
1. Cc1cc(C)n(-c2cncc(NCCNC(=O)C(C)C)n2)n1
2. CC(C)N1CCC(CNCc2c[nH]nc2C(C)(C)C)C1 (stereo not drawn)

1: -5.51; 2: -10.6

----------
Target Or Test System: Tyrosyl-tRNA synthetase, putative (Trypanosoma cruzi (strain CL Brener)) (UniProt Q4DSP6)
Sequence (Q4DSP6 as listed by the source): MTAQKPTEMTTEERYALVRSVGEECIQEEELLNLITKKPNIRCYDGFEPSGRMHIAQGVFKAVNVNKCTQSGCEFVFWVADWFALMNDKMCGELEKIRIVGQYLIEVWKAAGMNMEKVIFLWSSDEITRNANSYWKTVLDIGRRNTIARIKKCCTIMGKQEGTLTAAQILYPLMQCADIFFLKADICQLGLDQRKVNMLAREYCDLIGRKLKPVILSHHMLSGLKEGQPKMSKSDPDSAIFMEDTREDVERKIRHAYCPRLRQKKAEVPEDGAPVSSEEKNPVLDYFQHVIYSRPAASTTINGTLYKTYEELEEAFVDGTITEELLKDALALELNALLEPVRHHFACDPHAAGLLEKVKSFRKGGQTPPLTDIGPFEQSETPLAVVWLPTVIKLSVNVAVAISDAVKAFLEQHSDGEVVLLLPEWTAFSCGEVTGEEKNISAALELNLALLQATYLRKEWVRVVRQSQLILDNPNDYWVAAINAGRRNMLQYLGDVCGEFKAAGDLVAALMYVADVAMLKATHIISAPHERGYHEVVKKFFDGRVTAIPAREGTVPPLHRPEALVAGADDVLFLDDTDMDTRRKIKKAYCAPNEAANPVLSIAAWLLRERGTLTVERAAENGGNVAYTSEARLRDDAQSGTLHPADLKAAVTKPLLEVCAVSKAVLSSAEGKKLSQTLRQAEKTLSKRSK
Test Name: Trypanosoma cruzi tyrosyl tRNA synthetase (TcYRS) SOP
Format: functional
Set-up: scale not given: direction of the effect not stated beside the values
Measurement Setup: 30 µM
Provide the reported Percent Effect of each item.
Answers are plain numbers, in %.

>>> measured_result("CCOC(=O)N1CCN(C(=O)c2ccc3ccn(C)c3c2)CC1")
7.32

Each of the following entries comes with a recorded value; kindly state Percent Effect for each.
1. c1cc(CNCC2OCCc3cn(CC4CCOCC4)nc32)ccn1 (stereo unspecified)
2. CCCC(Nc1c(C#N)c(=O)n(C)c(=O)n1C)c1ccc(F)cc1F (stereo unspecified)
3. COc1ccc(C)cc1CN(C)Cc1nc2c(cnn2C)c(=O)[nH]1
4. CN(C)[C@@H]1CN(Cc2ccoc2)C[C@@H]2CCCO[C@@H]21

1. 17.9
2. 13.9
3. 23.5
4. -2.56

Answer briefly: Percent Effect recorded on Tyrosyl-tRNA synthetase, putative (Trypanosoma cruzi (strain CL Brener)) (UniProt Q4DSP6) for CN(C)C(=O)[C@@H]1CCO[C@@H]2CCN(Cc3ccc4c(c3)OCO4)C[C@@H]21
2.56

----------
Target Or Test System: Arginase-2, mitochondrial (Homo sapiens) (UniProt P78540)
Sequence (P78540 whole entry): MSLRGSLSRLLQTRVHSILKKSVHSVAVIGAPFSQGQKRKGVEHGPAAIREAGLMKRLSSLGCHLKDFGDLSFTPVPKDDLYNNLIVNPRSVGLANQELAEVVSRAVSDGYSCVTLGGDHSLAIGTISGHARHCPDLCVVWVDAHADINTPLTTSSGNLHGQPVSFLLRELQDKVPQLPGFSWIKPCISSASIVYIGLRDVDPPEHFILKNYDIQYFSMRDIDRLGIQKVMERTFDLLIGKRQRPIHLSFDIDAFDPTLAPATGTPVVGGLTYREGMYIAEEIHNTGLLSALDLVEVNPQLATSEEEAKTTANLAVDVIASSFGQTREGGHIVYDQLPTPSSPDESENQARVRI
Test Name: in vitro enzyme assay to detect the production of urea directly proportional to the activity of Arginase II; note: in the data most compounds retested in dose-response had high values
Assay type: functional
Design: scale not given: direction of the effect not stated beside the values
Measurement Setup: 33.3 µM
Provide the reported Percent Effect of each item.
One number for each entry, in %.

Previously resolved entries follow.
>>> measured_result("Cc1nc(CN2CCCC(CCNS(C)(=O)=O)C2)c[nH]1 (stereo unspecified)")
3.85
>>> measured_result("Cc1nc2ccccn2c1CN(Cc1cccnc1)CC1CCCO1 (stereo unspecified)")
0.455
>>> measured_result("CCc1ncc2c(n1)CN(Cc1nc(-c3ccsc3)no1)CC2")
-0.719
>>> measured_result("O=C(Nc1cccc(CN2CCOC2=O)c1)N1CCOCC1")
3.09
>>> measured_result("CC1c2ncc(CN3CCN(C)CC3)n2CCN1CC1CC1 (stereo unspecified)")
-54.7

Next up:
Input NCC1Cn2nnc(-c3cccc(F)c3)c2CO1 (stereo unspecified) , output reported Percent Effect.
-1.38

----------
Species on record: Homo sapiens
Test Name: To identify inhibition of the IFN signalling (Jak-Stat) pathway via expression of an eGFP reporter gene under the control of an IFN-stimulated response element (ISRE) containing MxA promoter.
Type: functional
Design: scale not given: direction of the effect not stated beside the values
Measurement Setup: 30 µM
Endpoint: Percent Effect

Previously resolved entries follow.
>>> measured_result("Cc1ccc(NC(=O)C2CSCN2C(=O)c2cc[nH]n2)c(C)c1 (stereo unspecified)")
"-8.73%"
>>> measured_result("CNC(=O)c1cccnc1Oc1ccccc1")
"10%"
>>> measured_result("CCc1nc(CN2CCCN(C(=O)c3cn[nH]c3CC)CC2)cs1")
"-6.8%"
>>> measured_result("Cc1ccc(C(=O)NCCS(C)(=O)=O)c(=O)[nH]1")
"7.03%"
>>> measured_result("Cc1cc(C[C@@H]2COC[C@@H]2NC(=O)CN2CCCN(C)CC2)on1")
"4.37%"
>>> measured_result("Cc1nccn1-c1cc(CNC(=O)c2ccccn2)ccn1")
"15.2%"
>>> measured_result("Cc1cc(C)n(CCCNC(=O)[C@@H](C)NC(=O)OC(C)(C)C)n1")
"5.91%"
>>> measured_result("CCc1nnc2n1CCN(Cc1csc(-c3ccc(C)o3)n1)C2")
"4.79%"
>>> measured_result("O=C1NC2(CCN(Cc3nccs3)CC2)CC1c1ccncc1 (stereo unspecified)")
"-18.5%"
>>> measured_result("CC(C)c1cc(NCC(O)c2ccc(F)cc2)n2nccc2n1 (stereo unspecified)")
"38.1%"

Next up:
Input COCCN1C[C@@H](C)[C@@]2(COCCN(C(=O)c3cnc(C)cn3)C2)C1 , output reported Percent Effect.
-11.1%

----------
Provide the reported Percent Effect of each item.
Test system: Trypanosoma cruzi
Test Name: Trypanosoma cruzi phosphomannomutase and mannose-1-phosphate guanylyltransferase assay
Type: functional
Design: scale not given: direction of the effect not stated beside the values
Measurement Setup: 10 µM
One number for each entry, in %.

>>> measured_result("Cn1cnnc1CNC(=O)Nc1cc(C(F)(F)F)c[nH]c1=O")
1.5
>>> measured_result("CCn1ncc(NC(=O)c2cc(C3CC3)nc3c2c(C)nn3C)c1C")
3.75
>>> measured_result("COCCc1noc(CN2CCCC(Cn3nc(C)nc3C)C2)n1 (configuration not stated)")
0.472
>>> measured_result("Cc1csc2ncc(-c3ccnc(N4CCN(C)CC4)n3)c(=O)n12")
-3.21
>>> measured_result("CC(C)NC(=O)N1C[C@H]2C[C@H](C(=O)NCc3ccccc3)[C@@H](C1)O2")
-5.16
>>> measured_result("CN1CCOC(CNC(=O)Cc2ccccc2F)C1 (configuration not stated)")
3.47
>>> measured_result("COCC1CN(S(C)(=O)=O)Cc2ncn(CC3CC3)c21 (configuration not stated)")
-5.38
>>> measured_result("COC(=O)c1ccc(S(=O)(=O)NCc2cccnc2N(C)C)cc1")
-8.59

Each of the following entries comes with a recorded value; kindly state Percent Effect for each.
1. CN1C[C@H]2CCN(C(=O)NC3CCCC3)CC[C@H]2S1(=O)=O
2. CCS(=O)(=O)N1C[C@H]2CCC[C@@]2(COc2ccccn2)C1
3. CCOc1c(Cl)cccc1NCc1cc(C)on1
4. Cc1cc2ccccc2n1CCC(=O)NCc1ncc[nH]1
5. CC(C)c1nnc2n1CCN(C(=O)c1ccc(OCC(N)=O)cc1)C2
6. CCC(=O)N1CCCC(c2cc(Nc3ncccn3)nc(C)n2)C1 (configuration not stated)
7. Cc1cnn(CC2CCCN2Cc2coc(-c3ccccc3)n2)c1 (configuration not stated)
8. CC(=O)N1CCCn2nc(CNS(=O)(=O)N3CCCCCC3)cc2C1

-5.7
-0.393
-1.6
-4.74
4.41
-1.58
6.46
-2.81
